Molecular target: human CD40 Transcript 1 (Myc-DDK-tagged) on HEK293 GRE reporter cells (human, UniProt P25942 21-277)
Sequence (P25942 21-277): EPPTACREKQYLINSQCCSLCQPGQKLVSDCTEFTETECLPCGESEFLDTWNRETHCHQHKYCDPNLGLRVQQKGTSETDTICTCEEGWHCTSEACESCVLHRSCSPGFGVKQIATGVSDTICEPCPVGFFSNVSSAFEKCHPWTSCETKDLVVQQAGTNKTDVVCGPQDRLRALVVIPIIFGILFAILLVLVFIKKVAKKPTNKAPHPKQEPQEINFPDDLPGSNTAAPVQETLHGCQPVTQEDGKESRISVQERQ
Experiment: cell-based or functional assay
For each of the binders below, state its hCD40 GRE (% max).
Return type: number; implicit unit %.

## Task // query hCD40 GRE (% max) value for entry Example 28-conjugated (human), n=2 (antibody, human IgG1, kappa, L234A L235A, DAR 2, V domains shown, glucocorticoid drug-linker of Precursor Example 28 (bromoacetamide) on cysteine thiols of reduced interchain disulfides; n=2 per antibody; positions not given) VH: EVQLVESGGGLVKPGGSLRLSCAASGFTFSDYGMNWVRQAPGKGLEWIAYISSGRGNIYYADTVKGRFTISRDNAKNSLYLQMNSLRAEDTAVYYCARSWGYFDVWGQGTTVTVSS VL: DIVMTQSPDSLAVSLGERATINCKSSQSLLNRGNQKNYLTWFQQKPGQPPKLLIYWASTRESGVPDRFSGSGSGTDFTLTISSLQAEDVAVYYCQNDYTYPLTFGQGTKLEIKR
## Result 90

## Task // query hCD40 GRE (% max) value for entry Example 4-conjugated (human), n=4 (antibody, human IgG1, kappa, L234A L235A, DAR 4, V domains shown, glucocorticoid drug-linker of Precursor Example 4 (bromoacetamide) on cysteine thiols of reduced interchain disulfides; n=4 per antibody; positions not given) VH: EVQLVESGGGLVKPGGSLRLSCAASGFTFSDYGMNWVRQAPGKGLEWIAYISSGRGNIYYADTVKGRFTISRDNAKNSLYLQMNSLRAEDTAVYYCARSWGYFDVWGQGTTVTVSS VL: DIVMTQSPDSLAVSLGERATINCKSSQSLLNRGNQKNYLTWFQQKPGQPPKLLIYWASTRESGVPDRFSGSGSGTDFTLTISSLQAEDVAVYYCQNDYTYPLTFGQGTKLEIKR
## Result 88

## Task // query hCD40 GRE (% max) value for entry Example 13-hydrolyzed (human), n=4 (antibody, human IgG1, kappa, L234A L235A, V domains shown, glucocorticoid drug-linker of Precursor Example 13 (maleimide, thiosuccinimide ring hydrolyzed) on cysteine thiols of reduced disulfides; n=4 per antibody; positions not given) VH: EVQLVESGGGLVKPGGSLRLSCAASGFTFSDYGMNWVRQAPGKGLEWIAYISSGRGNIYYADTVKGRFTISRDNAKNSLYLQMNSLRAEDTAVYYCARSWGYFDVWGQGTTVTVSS VL: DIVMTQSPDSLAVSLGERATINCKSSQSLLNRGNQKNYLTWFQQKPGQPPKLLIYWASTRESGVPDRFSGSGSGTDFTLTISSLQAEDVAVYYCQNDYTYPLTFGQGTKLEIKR
## Result 67

## Task // query hCD40 GRE (% max) value for entry Example 12-hydrolyzed (human), n=4 (antibody, human IgG1, kappa, L234A L235A, V domains shown, glucocorticoid drug-linker of Precursor Example 12 (maleimide, thiosuccinimide ring hydrolyzed) on cysteine thiols of reduced disulfides; n=4 per antibody; positions not given) VH: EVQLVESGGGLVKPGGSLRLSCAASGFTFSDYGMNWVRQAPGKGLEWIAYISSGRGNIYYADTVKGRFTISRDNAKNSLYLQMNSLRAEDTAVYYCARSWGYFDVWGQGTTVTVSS VL: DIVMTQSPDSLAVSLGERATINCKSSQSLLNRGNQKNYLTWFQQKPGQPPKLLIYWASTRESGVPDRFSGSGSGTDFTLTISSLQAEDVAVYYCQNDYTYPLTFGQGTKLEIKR
## Result 163
